- System: Bacillus subtilis
- assay-protocol: Antibacterial activity against Bacillus subtilis MTCC 441 after 24 hrs by serial dilution method
- Format: functional
- conditions: MTCC 441, 24 h
measurement-type: MIC (µM)
Write the value in µM as a bare number.

Consider the molecule O=C(CCCC(=O)OCc1cn(CCc2ccccc2)nn1)OCc1cn(CCc2ccccc2)nn1 and give its measured MIC.
24.9

Give its MIC value. Item: O=C(CCC(=O)OCc1cn(CCc2ccccc2)nn1)OCc1cn(CCc2ccccc2)nn1
25.6

Any idea what its MIC is? The molecule is O=C(OCc1cn(CCc2ccccc2)nn1)c1cccc(C(=O)OCc2cn(CCc3ccccc3)nn2)c1
23.3

Which measured MIC value corresponds to O=C(CCCCC(=O)OCc1cn(CCc2ccccc2)nn1)OCc1cn(CCc2ccccc2)nn1 ?
24.2

// lookup MIC for O=C(CC(=O)OCc1cn(CCc2ccccc2)nn1)OCc1cn(CCc2ccccc2)nn1
26.3

Please give the measured MIC for this molecule: O=C(CCCC(=O)OCc1cn(Cc2ccccc2)nn1)OCc1cn(Cc2ccccc2)nn1
26.3

Reported MIC, molecule CCn1cc(C(=O)O)c(=O)c2cc(F)c(N3CCNCC3)cc21 : ____
9.8

# MIC lookup, item O=C(CC(=O)OCc1cn(Cc2ccccc2)nn1)OCc1cn(Cc2ccccc2)nn1
28

Need MIC of O=C(OCc1cn(CCc2ccccc2)nn1)c1cccc(C(=O)OCc2cn(CCc3ccccc3)nn2)n1 , thanks.
23.3

// query MIC value for entry O=C(OCc1cn(Cc2ccccc2)nn1)c1cccc(C(=O)OCc2cn(Cc3ccccc3)nn2)n1
12.3

What does the data say about its MIC? Entry: O=C(CCCCC(=O)OCc1cn(Cc2ccccc2)nn1)OCc1cn(Cc2ccccc2)nn1
25.6

Which MIC value is on record for O=C(OCc1cn(CCc2ccccc2)nn1)c1ccc(C(=O)OCc2cn(CCc3ccccc3)nn2)cc1 ?
23.3

Could you share which MIC value was measured for O=C(CCC(=O)OCc1cn(Cc2ccccc2)nn1)OCc1cn(Cc2ccccc2)nn1 ?
27.1

Taken from ChEMBL document CHEMBL2040785.
